Molecular target: human CD33 I67A (human, UniProt P20138 18-364)
Sequence (P20138 18-364 I67A limits assumed): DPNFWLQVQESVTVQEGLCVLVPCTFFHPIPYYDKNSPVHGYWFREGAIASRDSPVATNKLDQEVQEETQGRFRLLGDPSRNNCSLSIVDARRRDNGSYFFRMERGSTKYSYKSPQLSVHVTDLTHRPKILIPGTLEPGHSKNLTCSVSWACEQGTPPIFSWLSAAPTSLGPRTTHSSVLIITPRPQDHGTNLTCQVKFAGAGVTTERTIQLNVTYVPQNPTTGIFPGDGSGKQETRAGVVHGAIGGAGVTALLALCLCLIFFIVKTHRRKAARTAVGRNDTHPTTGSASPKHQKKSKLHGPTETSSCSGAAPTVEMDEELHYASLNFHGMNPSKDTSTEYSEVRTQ
Assay: alanine scan, flow cytometry;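 further: HEK293-T cells transiently expressing single-residue alanine mutants of CD33 (alanine swapped to serine), antibody binding read by fluorescence in duplicate, background-subtracted, expressed relative to wild-type CD33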
Provide the reported Mean % WT Binding of each item.
A complete answer gives the number and then names the unit.

Input: I'd like to know its Mean % WT Binding. The binder in question is Refmab #3 (antibody, V domains shown, Full-length format is human IgG1 Fc silent (PG-LALA); The alanine scan used IgG or Fab) VH: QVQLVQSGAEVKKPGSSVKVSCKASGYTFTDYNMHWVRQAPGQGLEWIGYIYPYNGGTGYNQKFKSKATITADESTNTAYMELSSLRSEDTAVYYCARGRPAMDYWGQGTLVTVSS VL: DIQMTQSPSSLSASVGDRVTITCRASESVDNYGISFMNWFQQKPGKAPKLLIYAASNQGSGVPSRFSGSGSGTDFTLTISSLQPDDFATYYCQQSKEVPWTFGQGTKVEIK
Output: 142 % WT

Input: I'd like to know its Mean % WT Binding. The binder in question is Refmab #1 (antibody, V domains shown, Full-length format is human IgG1 (Absolute Antibody Ab00283-10.0); The alanine scan used IgG or Fab; also called hP67.6) VH: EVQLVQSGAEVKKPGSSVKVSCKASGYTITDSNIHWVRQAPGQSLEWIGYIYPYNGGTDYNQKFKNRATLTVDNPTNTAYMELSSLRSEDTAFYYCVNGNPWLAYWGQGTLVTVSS VL: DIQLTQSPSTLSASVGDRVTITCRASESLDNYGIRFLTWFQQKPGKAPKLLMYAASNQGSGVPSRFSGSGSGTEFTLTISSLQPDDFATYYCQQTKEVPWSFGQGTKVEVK
Output: 98.1 % WT

Input: I'd like to know its Mean % WT Binding. The binder in question is Refmab #2 (antibody, V domains shown, Full-length format is human IgG1 Fc silent (PG-LALA); The alanine scan used IgG or Fab) VH: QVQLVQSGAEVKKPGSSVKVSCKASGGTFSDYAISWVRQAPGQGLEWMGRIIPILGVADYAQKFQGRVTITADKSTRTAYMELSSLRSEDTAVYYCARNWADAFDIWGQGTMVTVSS VL: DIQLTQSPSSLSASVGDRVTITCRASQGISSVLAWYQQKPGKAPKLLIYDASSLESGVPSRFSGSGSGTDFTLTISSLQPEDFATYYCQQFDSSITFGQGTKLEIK
Output: 122 % WT

Input: I'd like to know its Mean % WT Binding. The binder in question is Refmab #4 (antibody, V domains shown, Full-length format is human IgG1 Fc silent (PG-LALA); The alanine scan used IgG or Fab) VH: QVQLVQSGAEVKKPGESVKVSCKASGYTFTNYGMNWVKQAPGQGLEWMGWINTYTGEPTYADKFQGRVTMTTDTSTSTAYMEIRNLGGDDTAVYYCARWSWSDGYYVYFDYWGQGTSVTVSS VL: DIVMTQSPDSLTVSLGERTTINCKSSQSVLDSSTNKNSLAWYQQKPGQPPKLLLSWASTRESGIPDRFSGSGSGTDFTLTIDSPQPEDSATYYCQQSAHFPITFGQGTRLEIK
Output: 67.2 % WT
